- systemUnderTest: T1, EAT-2 (recombinant full-length human EAT-2) (human, UniProt O14796 1-132)
- T1 construct: EAT-2, human, full length; source: E. coli BL21(DE3)pLysS, purified (Co2+ or Ni2+ column, size exclusion chromatography)
- T1 sequence (looked up): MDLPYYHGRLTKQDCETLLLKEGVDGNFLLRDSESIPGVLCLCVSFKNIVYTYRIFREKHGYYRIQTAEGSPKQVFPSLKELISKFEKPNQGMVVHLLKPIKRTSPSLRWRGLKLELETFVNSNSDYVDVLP
- measurementDescription: SPR; biotinylated phosphopeptides immobilised on streptavidin chip (about 25 RU single motifs); soluble recombinant protein injected in two-fold dilutions; 37°C; HBS-EP (10 mM HEPES pH 7.4, 150 mM NaCl, 3.4 mM EDTA, 0.005% P20); equilibrium binding, one-site model; proteins purified on the same day as SPR (Tables 1 and 6)
- reportedConditions: both partners purified
Non-standard residues stand in square brackets, D forms with d. No end group written: not given here. *: point of attachment. Biotin = O=C1N[C@H]2[C@H](CS[C@H]2CCCCC(=O)*)N1; pY = N[C@@H](Cc1ccc(OP(=O)(O)O)cc1)C(=O)O
parameterMeasured: pKd
For clarity, pKd is expressed as the negative log10 of concentration in mol/L.

binder | pKd
Biotin-EFLTI[pY]EDVKD (CD244 (SLAMF4), human, cytoplasmic ITSM1; also called SLAMF4 ITSM1; source: synthetic peptide (Peptide Protein Research Ltd)) [CD244 ITSM1 phosphopeptide (Biotin-EFLTIpYEDVKD)] | 7.70

Please look at the following binder next.
Task: Suppose we examine the binder Biotin-PANTV[pY]STVEI (CRACC (SLAMF7), human, cytoplasmic ITSM2; also called SLAMF7 ITSM2; source: synthetic peptide (Peptide Protein Research Ltd)) [CRACC ITSM2 phosphopeptide (Biotin-PANTVpYSTVEI)] ; what pKd value has been reported?
Result: 8.52
